B1: glmS ribozyme (parent)
chain: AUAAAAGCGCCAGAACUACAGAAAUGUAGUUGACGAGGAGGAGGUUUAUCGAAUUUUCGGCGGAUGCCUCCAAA

- Variants of: B1
- Run Description: self-cleavage kobs at 2500 uM GlcN6P; higher = faster cleavage; RNA array
- Settings: with glucosamine-6-phosphate
This sample holds only a part of the variants without activity.
Threshold check on self-cleavage kobs at 2500 uM GlcN6P: at or above 0.0001 s⁻¹ gives TRUE, strictly below gives FALSE.

Reference set (3 entries):
G37A C68A ... FALSE
A39G G63U ... FALSE
G13C G32C ... TRUE

Is reported self-cleavage kobs at 2500 uM GlcN6P greater than or equal to 0.0001 s⁻¹ here: A6U A33U C68G
FALSE

Is reported self-cleavage kobs at 2500 uM GlcN6P greater than or equal to 0.0001 s⁻¹ here: A12U C58A
TRUE

Is reported self-cleavage kobs at 2500 uM GlcN6P greater than or equal to 0.0001 s⁻¹ here: G43U G59C
FALSE

Is reported self-cleavage kobs at 2500 uM GlcN6P greater than or equal to 0.0001 s⁻¹ here: C10G C16U A33G G40C U47G U56G
FALSE

Is reported self-cleavage kobs at 2500 uM GlcN6P greater than or equal to 0.0001 s⁻¹ here: U30C G32U U47A
TRUE

Is reported self-cleavage kobs at 2500 uM GlcN6P greater than or equal to 0.0001 s⁻¹ here: C10U G13U A64C
FALSE

Is reported self-cleavage kobs at 2500 uM GlcN6P greater than or equal to 0.0001 s⁻¹ here: G38A U57A G66U C70A
FALSE

Is reported self-cleavage kobs at 2500 uM GlcN6P greater than or equal to 0.0001 s⁻¹ here: G35C G37C U46C G63U
FALSE

Is reported self-cleavage kobs at 2500 uM GlcN6P greater than or equal to 0.0001 s⁻¹ here: A48U U54G C70U
TRUE

Is reported self-cleavage kobs at 2500 uM GlcN6P greater than or equal to 0.0001 s⁻¹ here: A12C U54G C71U
TRUE

Is reported self-cleavage kobs at 2500 uM GlcN6P greater than or equal to 0.0001 s⁻¹ here: G35C A42G U49A G66C
FALSE

Is reported self-cleavage kobs at 2500 uM GlcN6P greater than or equal to 0.0001 s⁻¹ here: A6U G37C G40A
FALSE

Is reported self-cleavage kobs at 2500 uM GlcN6P greater than or equal to 0.0001 s⁻¹ here: C16U U30G G32A C68U
FALSE

Value source: the supplement of paper PMC7125110
